The reported measurements were obtained from patent US7105675B2.

- Study Target: δ opioid receptor (DPDPE) in MVD (Mus musculus)
- Construct: Electrically-induced smooth muscle contractions of mouse vas deferens and strips of guinea pig ileum longitudinal muscle myenteric plexus were used; from tissue; host or cells: mouse vas deferens (male ICR mice)
- Experiment Summary: Antagonist activity against DPDPE in electrically stimulated mouse vas deferens (MVD)
- Format: cell-based
Classification field. Basis: Kb. Definitions: bin A = under 10 nM, bin B = from 10 nM up to 40 nM, bin C = 40 nM and over

Which category fits this record: CCOC(=O)c1c(N)sc2c1[C@@H]1Oc3c(O)ccc4c3[C@@]13CCN(CC1CC1)[C@H](C4)[C@]3(O)C2 [Compound 8c]
bin C

Which category fits this record: COC(=O)c1c(N)sc2c1[C@@H]1Oc3c(O)ccc4c3[C@@]13CCN(CC1CC1)[C@H](C4)[C@]3(O)C2 [Compound 8b]
bin B

Which category fits this record: Nc1sc2c(c1C(=O)c1ccccc1)[C@@H]1Oc3c(O)ccc4c3[C@@]13CCN(CC1CC1)[C@H](C4)[C@]3(O)C2 [Compound 8f]
bin C

###

- Study Target: δ opioid receptor (Rattus norvegicus)
- Sequence (P33533 whole entry): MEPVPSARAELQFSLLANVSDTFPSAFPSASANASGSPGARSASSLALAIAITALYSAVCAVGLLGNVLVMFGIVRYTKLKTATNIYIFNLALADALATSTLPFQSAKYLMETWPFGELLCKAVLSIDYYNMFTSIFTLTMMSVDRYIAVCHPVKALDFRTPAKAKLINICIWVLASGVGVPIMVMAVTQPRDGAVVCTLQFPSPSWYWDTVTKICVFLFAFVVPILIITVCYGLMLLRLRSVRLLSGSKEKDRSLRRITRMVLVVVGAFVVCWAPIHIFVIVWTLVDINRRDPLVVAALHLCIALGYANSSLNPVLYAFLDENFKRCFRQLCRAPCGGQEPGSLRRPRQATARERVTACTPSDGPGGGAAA
- Experiment Summary: Radioligand binding, delta sites, displacement of [3H]DADLE in rat brain membranes
- Set-up: Rat membranes were prepared each day using a partially thawed frozen rat brain; from tissue; host or cells: rat brain membranes
- Run Parameters: thienomorphinans; ratio of Ki values
Please note: yes (1) applies when Selectivity Ratio κ1δ is 1 or greater, and no (0) applies otherwise.

Consider the worked cases shown below.
CCOC(=O)c1c(N)sc2c1[C@@H]1Oc3c(O)ccc4c3[C@@]13CCN(CC1CC1)[C@H](C4)[C@]3(O)C2 = yes (1)
N#Cc1c(N)sc2c1[C@@H]1Oc3c(O)ccc4c3[C@@]13CCN(CC1CC1)[C@H](C4)[C@]3(O)C2 = no (0)
Nc1sc2c(c1C(=O)OCc1ccccc1)[C@@H]1Oc3c(O)ccc4c3[C@@]13CCN(CC1CC1)[C@H](C4)[C@]3(O)C2 = yes (1)
NC(=O)c1c(N)sc2c1[C@@H]1Oc3c(O)ccc4c3[C@@]13CCN(CC1CC1)[C@H](C4)[C@]3(O)C2 = no (0)

Form field: Selectivity Ratio κ1δ at least 1? Entry: COC(=O)c1c(N)sc2c1[C@@H]1Oc3c(O)ccc4c3[C@@]13CCN(CC1CC1)[C@H](C4)[C@]3(O)C2
yes (1)

###

- Study Target: δ opioid receptor (DPDPE) in MVD (Mus musculus)
- Construct: Electrically-induced smooth muscle contractions of mouse vas deferens and strips of guinea pig ileum longitudinal muscle myenteric plexus were used; from tissue; host or cells: mouse vas deferens (male ICR mice)
- Experiment Summary: Antagonist activity against DPDPE in electrically stimulated mouse vas deferens (MVD)
- Format: cell-based
- Run Parameters: 1 μM compound, 30 min incubation; IC50 of DPDPE with antagonist divided by control IC50
- Procedure: Bioassays in GPI and MVD smooth muscle preparations. Electrically-induced smooth muscle contractions of mouse vas deferens and strips of guinea pig ileum longitudinal muscle myenteric plexus were used. Tissues came from maile ICR mice weighing 25–40 g and male Hartley guinea pigs weighing 250–500 g. […] The tissues were then stretched to optimal length previously determined to be 1 g tension (0.5 g for MVD) and allowed to equilibrate for 15 min. […]
For each of the molecules below, state its antagonist activity DPDPE (δ) MVD IC50 ratio.

Here's what some known entries look like.
Oc1ccc2c3c1OC1c4ncc(Br)cc4CC4(O)C(C2)N(CC2CC2)CCC314 (stereo not drawn) [Compound 7b] = 325 ± 127
NC(=O)c1c(N)sc2c1[C@@H]1Oc3c(O)ccc4c3[C@@]13CCN(CC1CC1)[C@H](C4)[C@]3(O)C2 [Compound 8e] = 118.6 ± 38.4

Looking for the measured antagonist activity DPDPE (δ) MVD IC50 ratio of CCOC(=O)c1c(N)sc2c1[C@@H]1Oc3c(O)ccc4c3[C@@]13CCN(CC1CC1)[C@H](C4)[C@]3(O)C2 [Compound 8c] , can you help?
19.8 ± 6.6

###

- Study Target: μ opioid receptor (Rattus norvegicus)
- Construct: Rat membranes were prepared each day using a partially thawed frozen rat brain; from tissue; host or cells: rat brain membranes
- Experiment Summary: Radioligand binding, mu sites, displacement of [3H]DAMGO in rat brain membranes
Readout Type: pKi
Numbers only, as −log10 of the molar value.

Here's what some known entries look like.
Nc1sc2c(c1C(=O)OCc1ccccc1)[C@@H]1Oc3c(O)ccc4c3[C@@]13CCN(CC1CC1)[C@H](C4)[C@]3(O)C2 [Compound 8d] = 7.21
N#Cc1cnc2c(c1)CC1(O)C3Cc4ccc(O)c5c4C1(CCN3CC1CC1)C2O5 (stereo not shown) [Compound 7c] = 7.80
Oc1ccc2c3c1OC1c4ncc(Br)cc4CC4(O)C(C2)N(CC2CC2)CCC314 (stereo not shown) [Compound 7b] = 7.81

Looking for the measured pKi of CCOC(=O)c1c(N)sc2c1[C@@H]1Oc3c(O)ccc4c3[C@@]13CCN(CC1CC1)[C@H](C4)[C@]3(O)C2 [Compound 8c] , can you help?
7.70

###

- Study Target: μ opioid receptor (Rattus norvegicus, UniProt P33535)
- Construct: Rat membranes were prepared each day using a partially thawed frozen rat brain; from tissue; host or cells: rat brain membranes
- Sequence (P33535 whole entry): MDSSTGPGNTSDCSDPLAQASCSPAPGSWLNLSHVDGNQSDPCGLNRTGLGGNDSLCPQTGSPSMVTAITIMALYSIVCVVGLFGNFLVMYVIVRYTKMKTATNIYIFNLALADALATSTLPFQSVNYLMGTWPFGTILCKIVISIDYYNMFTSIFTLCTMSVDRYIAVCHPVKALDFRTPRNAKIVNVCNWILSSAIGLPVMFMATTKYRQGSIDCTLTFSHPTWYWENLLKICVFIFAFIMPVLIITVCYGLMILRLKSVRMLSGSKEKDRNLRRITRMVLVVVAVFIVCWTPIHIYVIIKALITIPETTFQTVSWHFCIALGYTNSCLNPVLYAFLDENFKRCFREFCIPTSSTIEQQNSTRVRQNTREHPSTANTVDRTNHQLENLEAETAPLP
- Experiment Summary: Radioligand binding, mu sites, displacement of [3H]DAMGO in rat brain membranes
- Run Parameters: pyridomorphinans; [3H]DAMGO (1.4–2.0 nM), rat brain membranes; read-out: Ki (nM) ± SEM μ
Readout Type: Ki
Respond with a number, then the unit of measure.

CCOC(=O)c1cnc2c(c1)C[C@@]1(O)[C@H]3Cc4ccc(O)c5c4[C@@]1(CCN3CC1CC1)[C@H]2O5 = 37 nM

Now let's try a different one.
Looking for the measured Ki of Nc1cnc2c(c1)C[C@@]1(O)[C@H]3Cc4ccc(O)c5c4[C@@]1(CCN3CC1CC1)[C@H]2O5 , can you help?
12.8 nM

###

- Study Target: δ opioid receptor (Rattus norvegicus)
- Experiment Summary: Radioligand binding, delta sites, displacement of [3H]DADLE in rat brain membranes
- Set-up: Rat membranes were prepared each day using a partially thawed frozen rat brain; from tissue; host or cells: rat brain membranes
- Run Parameters: pyridomorphinans; [3H]DADLE (1.3–2.0 nM), rat brain membranes, 100 nM DAMGO to block μ-sites; read-out: Ki (nM) ± SEM δ
Readout Type: Ki (nM)
Answers are plain numbers, in nM.

Enter reported Ki observed with δ opioid receptor (Rattus norvegicus) for Nc1cnc2c(c1)C[C@@]1(O)[C@H]3Cc4ccc(O)c5c4[C@@]1(CCN3CC1CC1)[C@H]2O5
8

###

For each of the molecules below, state its antagonist activity DPDPE (δ) MVD IC50 ratio.
- Study Target: δ opioid receptor (DPDPE) in MVD (Mus musculus, UniProt P32300)
- Construct: Electrically-induced smooth muscle contractions of mouse vas deferens and strips of guinea pig ileum longitudinal muscle myenteric plexus were used; from tissue; host or cells: mouse vas deferens (male ICR mice)
- Sequence (P32300 whole entry): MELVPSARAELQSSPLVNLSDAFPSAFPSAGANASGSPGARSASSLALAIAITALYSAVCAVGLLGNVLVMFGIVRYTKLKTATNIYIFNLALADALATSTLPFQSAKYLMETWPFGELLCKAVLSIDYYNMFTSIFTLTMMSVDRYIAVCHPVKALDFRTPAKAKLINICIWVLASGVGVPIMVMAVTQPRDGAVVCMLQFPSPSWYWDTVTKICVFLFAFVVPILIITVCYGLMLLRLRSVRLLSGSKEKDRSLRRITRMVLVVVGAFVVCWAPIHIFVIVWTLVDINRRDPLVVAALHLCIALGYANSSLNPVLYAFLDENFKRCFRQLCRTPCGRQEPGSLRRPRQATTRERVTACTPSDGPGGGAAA
- Experiment Summary: Antagonist activity against DPDPE in electrically stimulated mouse vas deferens (MVD)
- Type: cell-based
- Run Parameters: 1 μM compound, 30 min incubation; IC50 of DPDPE with antagonist divided by control IC50
- Description: Bioassays in GPI and MVD smooth muscle preparations. Electrically-induced smooth muscle contractions of mouse vas deferens and strips of guinea pig ileum longitudinal muscle myenteric plexus were used. Tissues came from maile ICR mice weighing 25–40 g and male Hartley guinea pigs weighing 250–500 g. […] The tissues were then stretched to optimal length previously determined to be 1 g tension (0.5 g for MVD) and allowed to equilibrate for 15 min. […]

Here's what some known entries look like.
N#Cc1c(N)sc2c1[C@@H]1Oc3c(O)ccc4c3[C@@]13CCN(CC1CC1)[C@H](C4)[C@]3(O)C2 [Compound 8a] = 109.6 ± 12.1
N#Cc1cnc2c(c1)CC1(O)C3Cc4ccc(O)c5c4C1(CCN3CC1CC1)C2O5 (stereo not shown) [Compound 7c] = 23.6 ± 2.2
COC(=O)c1c(N)sc2c1[C@@H]1Oc3c(O)ccc4c3[C@@]13CCN(CC1CC1)[C@H](C4)[C@]3(O)C2 [Compound 8b] = 53.5 ± 10.1
Nc1cnc2c(c1)C[C@@]1(O)[C@H]3Cc4ccc(O)c5c4[C@@]1(CCN3CC1CC1)[C@H]2O5 [Compound 7f] = 43.3 ± 9.0
Nc1sc2c(c1C(=O)OCc1ccccc1)[C@@H]1Oc3c(O)ccc4c3[C@@]13CCN(CC1CC1)[C@H](C4)[C@]3(O)C2 [Compound 8d] = 289 ± 13

State recorded antagonist activity DPDPE (δ) MVD IC50 ratio for all listed molecules.
1. Nc1sc2c(c1C(=O)c1ccccc1)[C@@H]1Oc3c(O)ccc4c3[C@@]13CCN(CC1CC1)[C@H](C4)[C@]3(O)C2 [Compound 8f]
2. O=[N+]([O-])c1cnc2c(c1)CC1(O)C3Cc4ccc(O)c5c4C1(CCN3CC1CC1)C2O5 (stereo not shown) [Compound 7e]

24.4 ± 4.0
20.7 ± 4.2
